molecular target: T1, 3pE Aβ peptide (antigen, form not stated); assay: SPR; antigen peptide not named
T1 construct: also called the peptide
T1 sequence (P05067 674-699): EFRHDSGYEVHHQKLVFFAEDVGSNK
pKd: −log10 of the molar value.
// values below are reported pKd

- binder: "BAMB623 (antibody, human IgG1, kappa, V domains shown, BAMB31 HFA variant, human IgG1) VH: QVQLVQSGAEVKKPGASVKVSCKASGHVFTSYDMYWVRQAPGQSLEWIGYIDSDNGDTSYNQKFKGKATMTVDTSTSTVYMELSSLRSEDTAVYYCAYYRYAMDYWGQGTLVTVSS VL: DVVMTQSPLSLPVTLGQPASISCKSSQSLLDSRAKTYLTWLQQRPGQSPRRLIYLVSKLDSGVPDRFSGSGSGTDFTLKISRVEAEDVGVYYCWQGTHFPYTFGGGTKLEIKR"
  pKd: 10.74
- binder: "BAMB630 (antibody, human IgG1, kappa, V domains shown, BAMB31 HFA variant, human IgG1) VH: QVQLVQSGAEVKKPGASVKVSCKASGHVFTSYDMYWVKQAPGQSLEWIGYIDSDNGDTSYNQKFKGKVTLTVDTSTSTVYMELSSLRSEDTAVYYCAYYRYAMDYWGQGTLVTVSS VL: DVVMTQSPLSLPVTLGQPASISCKSSQSLLDSRAKTYLTWLLQRPGQSPRRLIYLVSKLDSGVPDRFSGSGSGTDFTLKISRVEAEDVGVYYCWQGTHFPYTFGGGTKLEIKR"
  pKd: 10.42
- binder: "BAMB611 (antibody, human IgG1, kappa, V domains shown, BAMB31 HFA variant, human IgG1) VH: QVQLVQSGAEVKKPGASVKVSCKASGHVFTSYDMYWVRQAPGQGLEWMGYIDSDNGDTSYNQKFKGRVTMTVDTSTSTVYMELSSLRSEDTAVYYCAYYRYAMDYWGQGTLVTVSS VL: DVVMTQSPLSLPVTLGQPASISCKSSQSLLDSNGKTYLTWFQQRPGQSPRRLIYLVSKLDSGVPDRFSGSGSGTDFTLKISRVEAEDVGVYYCWQGTHFPYTFGGGTKLEIKR"
  pKd: 8.82
- binder: "BAMB614 (antibody, human IgG1, kappa, V domains shown, BAMB31 HFA variant, human IgG1) VH: QVQLVQSGAEVKKPGASVKVSCKASGHVFTSYDMYWVRQAPGQGLEWIGYIDSDNGDTSYNQKFKGRVTLTVDTSTSTVYMELSSLRSEDTAVYYCAYYRYAMDYWGQGTLVTVSS VL: DVVMTQSPLSLPVTLGQPASISCKSSQSLLDSRAKTYLTWLQQRPGQSPRRLIYLVSKLDSGVPDRFSGSGSGTDFTLKISRVEAEDVGVYYCWQGTHFPYTFGGGTKLEIKR"
  pKd: 10.80
- binder: "BAMB612 (antibody, human IgG1, kappa, V domains shown, BAMB31 HFA variant, human IgG1) VH: QVQLVQSGAEVKKPGASVKVSCKASGHVFTSYDMYWVRQSPGQGLEWIGYIDSDNGDTSYNQKFKGRVTLTVDTSTSTVYMELSSLRSEDTAVYYCAYYRYAMDYWGQGTLVTVSS VL: DVVMTQSPLSLPVTLGQPASISCKSSQSLLDSRAKTYLTWLQQRPGQSPRRLIYLVSKLDSGVPDRFSGSGSGTDFTLKISRVEAEDVGVYYCWQGTHFPYTFGGGTKLEIKR"
  pKd: 10.93
- binder: "BAMB631 (antibody, human IgG1, kappa, V domains shown, BAMB31 HFA variant, human IgG1) VH: QVQLVQSGAEVKKPGASVKVSCKASGHVFTSYDMYWVRQAPGQSLEWMGYIDSDNGDTSYNQKFKGRVTLTVDTSTSTVYMELSSLRSEDTAVYYCAYYRYAMDYWGQGTLVTVSS VL: DVVMTQSPLSLPVTLGQPASISCKSSQSLLDSRAKTYLTWLLQRPGQSPRRLIYLVSKLDSGVPDRFSGSGSGTDFTLKISRVEAEDVGVYYCWQGTHFPYTFGGGTKLEIKR"
  pKd: 10.74
- binder: "BAMB613 (antibody, human IgG1, kappa, V domains shown, BAMB31 HFA variant, human IgG1) VH: QVQLVQSGAEVKKPGASVKVSCKASGHVFTSYDMYWVRQAPGQGLEWIGYIDSDNGDTSYNQKFKGKVTLTVDTSTSTVYMELSSLRSEDTAVYYCAYYRYAMDYWGQGTLVTVSS VL: DVVMTQSPLSLPVTLGQPASISCKSSQSLLDSRAKTYLTWLQQRPGQSPRRLIYLVSKLDSGVPDRFSGSGSGTDFTLKISRVEAEDVGVYYCWQGTHFPYTFGGGTKLEIKR"
  pKd: 10.74
